B1: CPEB3 Ribozyme (parent)
chain: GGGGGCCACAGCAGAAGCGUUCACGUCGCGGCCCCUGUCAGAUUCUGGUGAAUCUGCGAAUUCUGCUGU

Variants of: B1
Assay: self-cleavage, relative activity (ratio to wild type); higher = more cleavage; co-transcriptional
This listing pairs variants with measured self-cleavage.
readout: self-cleavage

> print(dat)
                                         seq  result.number
 1  GGGGGCCACAGCAGAAGCGUUCGCGUCGCGGCCCCGGUCAGAUUCUGGUGAAUCUGCGAAUUCUGCUGU [A23G U36G]          0.227
 2  GGGGGCCACAGCAGAAGCGUACACGUCGCGGCCCCUGUCAGAUUCUGGUGAAUCUGCGAAUUCUGCUGC [U21A U69C]           1.06
 3  GGGGGCCACAGCAGAAACGUUCACGUCGCGGCCCCUGUCAGAUUCUGGUGAAUCUGCAAAUUCUGCUGU [G17A G58A]          0.259
 4  GGGGGCCACAGCAGAACCGUUCACGUCGCGGCCCCUGUCAUAUUCUGGUGAAUCUGCGAAUUCUGCUGU [G17C G41U]          0.123
 5  GGGGGCCACAGCAGAAGCGUUCACGUCGCGGCCCCUGGCAGAUUCUGGUGAAUCUGCGAAUUCUGCUGA [U38G U69A]          0.352
 6  GGGGGCCACAGCAGAAGCGAUCACGUCGCGGCCCCUGUCAGAUUCUGGUGAAUCUGAGAAUUCUGCUGU [U20A C57A]          0.195
 7  GGGGGCCACAGCAGAUGCGUUCACGUCGAGGCCCCUGUCAGAUUCUGGUGAAUCUGCGAAUUCUGCUGU [A16U C29A]          0.288
 8  UGGGGCCACAGCAGAAGCGUUCACGUCGCGGCCCCUGUCAGAUUGUGGUGAAUCUGCGAAUUCUGCUGU [G1U C45G]          0.134
 9  GGGGGCUACAGCAGAAGCGUUCACGUCGCGGCCCCUGUCAGACUCUGGUGAAUCUGCGAAUUCUGCUGU [C7U U43C]          0.967
10  GGCGGCCACAGCAGAAGCGUUCACGUCGCGGCCCCUGUCAGAUUCUGGUGAAUCUGCGAAUUCUGCUCU [G3C G68C]          0.432
11  GGGGGCCACAGCAGAAGCGUUCACGUCGCGGCCCCUGUCUGAUUCUGGUGAAUGUGCGAAUUCUGCUGU [A40U C54G]          0.457
12  GGGGGCCACAGCAGAAGCGUCCACGUCGCGGCCUCUGUCAGAUUCUGGUGAAUCUGCGAAUUCUGCUGU [U21C C34U]          0.898
13  GGGGGCCACAGCAGAAGCGUUCACGUCGCGGCCCCUGUCAGAUUCUGGUGAAGUUGCGAAUUCUGCUGU [U53G C54U]          0.815
14  GGGGGCCACAGCAGAAGCGUUCACGACGCGGCCCCUGCCAGAUUCUGGUGAAUCUGCGAAUUCUGCUGU [U26A U38C]          0.419
15  GGGGGCCACAGGAGAAGCGUUCACGUCGCGGCCCCUGUCAGAUUCGGGUGAAUCUGCGAAUUCUGCUGU [C12G U46G]          0.862
16  GAGGGCCACAGCAGAAGCGUUCACGUCGCGGCCCCUGUCAGAUUCUGGUGAAUCUGCGAAUUCUGAUGU [G2A C66A]         0.0939
17  GGGGGCCACAGCAGAAGCCUUCACGUCGCGGCCCCUGUCAGAUUCUGGUGAAUCUGCUAAUUCUGCUGU [G19C G58U]           0.19
18  GGGGGCCACAGCAGAAGCGUGCACGUCGCGGCCCCUGUCAGAUUCUGGUGAAUCUGCGAAUUCUGUUGU [U21G C66U]          0.529
19  GGGGGCCACAGCAGAAGCGUUCACGUCGCGGCCCCUGUCAGAUUCUGGUGAAUCUGGGAAUUCUGCUCU [C57G G68C]          0.388
20  GGGGGCCACAGCAGAAGCGUUCACGUCGCGGCCCCUGUCAGAUACUGGUGAAUCUGCGAAUUCUGCUGA [U44A U69A]          0.956
21  GCGGGCCACAGCAGAAGCGUUCACGUCGCGGCCCCUGUCAGAUUCAGGUGAAUCUGCGAAUUCUGCUGU [G2C U46A]         0.0309
22  GUGGGCCACAGCAGAAACGUUCACGUCGCGGCCCCUGUCAGAUUCUGGUGAAUCUGCGAAUUCUGCUGU [G2U G17A]         0.0534
23  GGGGGCGACAGCAGAAGCGUUCACGUCGCGGCCCCUGUCAGAUUCUGGUGAAUCUGCGAAUUCUGCCGU [C7G U67C]          0.635
24  GGGGGCCACAGCAGAAGCGUUCACGUCGCUGCCCCUGUCAGAUUCUGGUGAAUCUGCGAAUGCUGCUGU [G30U U62G]           0.19
25  GGGGGCCACAGCUGAAGCGUUCACGUCGCGGGCCCUGUCAGAUUCUGGUGAAUCUGCGAAUUCUGCUGU [A13U C32G]          0.229
26  GGGGGCCACAGCAGAAGCGUUCACGUCGCGGCCCCUGUCAGAUGCUGCUGAAUCUGCGAAUUCUGCUGU [U44G G48C]          0.965
27  GGGGGCCACAGCAGAAGAGUUCACGUCGCGGCCCCUUUCAGAUUCUGGUGAAUCUGCGAAUUCUGCUGU [C18A G37U]          0.121
28  GGAGGCCACAGCAGAAGCGUUCACGUCGCGACCCCUGUCAGAUUCUGGUGAAUCUGCGAAUUCUGCUGU [G3A G31A]          0.224
29  UGGGGCCACAGCAGAAGCGUUCACGUCGCGGCCCCUGUCAGAUUCUGUUGAAUCUGCGAAUUCUGCUGU [G1U G48U]          0.079
30  GGGGGCCACAGCUGAAGCGUUCACGUCGCGUCCCCUGUCAGAUUCUGGUGAAUCUGCGAAUUCUGCUGU [A13U G31U]          0.402
31  GGGGGCGACAGCAGAAGUGUUCACGUCGCGGCCCCUGUCAGAUUCUGGUGAAUCUGCGAAUUCUGCUGU [C7G C18U]          0.107
32  GAGGGCCACGGCAGAAGCGUUCACGUCGCGGCCCCUGUCAGAUUCUGGUGAAUCUGCGAAUUCUGCUGU [G2A A10G]          0.201
33  GGGGGCCACAGCAUAAGCGUUCACGUCGCGGCCCCUGUCAGAUUCUGGUGAAUCUGCGAAUUCUGGUGU [G14U C66G]          0.325
34  GGGGUCCACAGCAGAAGCGUUCACGUCGCGGCCCCUGUCAGAUUCUGGUGCAUCUGCGAAUUCUGCUGU [G5U A51C]          0.187
35  GGGGGCCACAGCAGAAGCGUUCACGUCGCGGCCCCUGUCAGAUUCUGGUGGAUCUGCGAAUCCUGCUGU [A51G U62C]          0.884
36  GGGGGCCACAGCAGAAGCGUUCACGUCGCGGCCCCUGUAAGCUUCUGGUGAAUCUGCGAAUUCUGCUGU [C39A A42C]          0.476
37  GGGGGCCACAGCAGAAGCGUUCACGUCGCGGCCCGUGUCAGAUUCUGGUGAAUCUGCGAGUUCUGCUGU [C35G A60G]          0.239
38  GGGGGUCACAGCAGAAGCGUUCACGUGGCGGCCCCUGUCAGAUUCUGGUGAAUCUGCGAAUUCUGCUGU [C6U C27G]          0.199
39  GGGGGCCACAGCAGGAGCGUUCACGUCGCGGCCCCUGUCAGAUUCUGGUGAAUCUGCGAAUUAUGCUGU [A15G C63A]          0.799
40  GGGGUCCACAGCAGAAGCGUUCACGUCUCGGCCCCUGUCAGAUUCUGGUGAAUCUGCGAAUUCUGCUGU [G5U G28U]         0.0687
41  GGGGGCCACAGCUGAAGCGUUCACGUCGCGGCCCCUGUCAGAUUCUGGUGAAACUGCGAAUUCUGCUGU [A13U U53A]          0.514
42  GGGGGCCACAGCAGGAGCGUUCACGUCGCGGCCCCUGUCAGGUUCUGGUGAAUCUGCGAAUUCUGCUGU [A15G A42G]          0.928
43  GGGGGCCACAGCAGAAGCGUUCACGUCGCGGCCCAUGUCAGAUUCUGGUGAGUCUGCGAAUUCUGCUGU [C35A A52G]          0.247
44  GGGGGCCACAGCAGAAGCGUUCACGUCGCGGCCCUUGUAAGAUUCUGGUGAAUCUGCGAAUUCUGCUGU [C35U C39A]          0.782
45  GGGGGCCACAGCAGAAGCGUUCACGUCGCGACCCCUGUCAGAUUCUGGUGAAUCUGCGAAUCCUGCUGU [G31A U62C]          0.406
46  GCGGGCCACAGCAGAAGCGUUCACGUCGCGGCCCCUGUCCGAUUCUGGUGAAUCUGCGAAUUCUGCUGU [G2C A40C]         0.0316
